- study.system: T1, RXFP1 receptor (UniProt Q9HBX9 1-757, limits assumed)
- T1 sequence (looked up): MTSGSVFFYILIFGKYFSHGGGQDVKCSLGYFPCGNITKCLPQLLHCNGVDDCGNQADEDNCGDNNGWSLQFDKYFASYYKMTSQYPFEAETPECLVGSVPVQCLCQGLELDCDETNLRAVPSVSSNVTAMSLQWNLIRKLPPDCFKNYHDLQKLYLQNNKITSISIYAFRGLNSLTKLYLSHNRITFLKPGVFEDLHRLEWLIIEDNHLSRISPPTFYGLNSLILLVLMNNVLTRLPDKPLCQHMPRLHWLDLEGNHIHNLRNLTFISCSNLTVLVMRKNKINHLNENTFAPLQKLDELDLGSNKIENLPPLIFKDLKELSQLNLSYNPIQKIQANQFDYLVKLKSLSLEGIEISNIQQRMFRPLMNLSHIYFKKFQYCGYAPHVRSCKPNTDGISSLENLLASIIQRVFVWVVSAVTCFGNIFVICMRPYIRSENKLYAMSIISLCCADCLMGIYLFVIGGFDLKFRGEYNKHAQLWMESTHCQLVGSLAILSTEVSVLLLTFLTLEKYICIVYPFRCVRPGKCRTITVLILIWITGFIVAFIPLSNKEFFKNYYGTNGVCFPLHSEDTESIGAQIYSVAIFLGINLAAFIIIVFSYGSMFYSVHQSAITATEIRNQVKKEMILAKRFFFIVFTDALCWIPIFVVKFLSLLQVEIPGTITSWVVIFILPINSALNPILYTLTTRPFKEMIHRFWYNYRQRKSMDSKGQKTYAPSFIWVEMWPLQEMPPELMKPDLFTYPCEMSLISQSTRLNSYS
- method.notes: cell-based or functional assay
*1 amine or outer side, *2 acyl side, *3 side chain or, on linkers, in order; H or OH if unused. Primed or numbered codes have the meaning given here. Side-chain parts run from the residue outwards. [ ]: non-standard residue; d: D form. The star is where a group is joined. TTDS″ = 4-[3-[2-[2-(3-aminopropoxy)ethoxy]ethoxy]propylamino]-4-oxo-butanoyl; γGlu = O=C(O)[C@H](CCC(=O)[*:2])N[*:1]; Stearoyl = CCCCCCCCCCCCCCCCCC(=O)*; Palmitoyl = CCCCCCCCCCCCCCCC(=O)*; αMeK = C[C@](N)(CCCCN)C(=O)O; Nle = CCCC[C@H](N)C(=O)O; PEG2′ = PEG2 spacer unit; Aib = CC(C)(N)C(=O)O
Could you label it 1.0 if measured EMax, OVCAR 5 cells (cAMP) is 90% or higher, and 0.0 otherwise?

Look over these answered cases.
>>> classification("Ac-LEGREKVRAQI[Aib][Aib]EG[Nle]STWS[Aib]RKKK([PEG2′-PEG2′-PEG2′-PEG2′-PEG2′-γGlu-γGlu-γGlu-Stearoyl])-NH2 [peptide of SEQ ID NO: 93]")
0.0
>>> classification("Ac-LEGREKVRAK(Ac)I[Aib][Aib]EG[Nle]STFS[Aib]RKK(Ac)[PEG2′][PEG2′][PEG2′][PEG2′]K([γGlu-γGlu-γGlu-Palmitoyl])-NH2 [peptide of SEQ ID NO: 144]")
1.0

Turning to the following binder.
Prompt line: Reported EMax, OVCAR 5 cells (cAMP) at or above 90%? Ac-LEGREKVRAK(Ac)I[Aib][Aib]EG[Nle]STFS[αMeK]RAK(Ac)K([TTDS″-TTDS″-TTDS″-γGlu-γGlu-γGlu-Palmitoyl])-NH2 [peptide of SEQ ID NO: 183]
Response line: 1.0
